Value source: patent US10899753B2

target: BTK (Homo sapiens (Human)); assay: In Vitro BTK Kinase Assay: BTK-POLYGAT-LS ASSAY; assay type: biochemical; settings: fluorescein-labeled polyGAT peptide 100 nM, BTK enzyme 0.25 nM, 30 minutes, TRF
Sequence (Q06187 whole entry): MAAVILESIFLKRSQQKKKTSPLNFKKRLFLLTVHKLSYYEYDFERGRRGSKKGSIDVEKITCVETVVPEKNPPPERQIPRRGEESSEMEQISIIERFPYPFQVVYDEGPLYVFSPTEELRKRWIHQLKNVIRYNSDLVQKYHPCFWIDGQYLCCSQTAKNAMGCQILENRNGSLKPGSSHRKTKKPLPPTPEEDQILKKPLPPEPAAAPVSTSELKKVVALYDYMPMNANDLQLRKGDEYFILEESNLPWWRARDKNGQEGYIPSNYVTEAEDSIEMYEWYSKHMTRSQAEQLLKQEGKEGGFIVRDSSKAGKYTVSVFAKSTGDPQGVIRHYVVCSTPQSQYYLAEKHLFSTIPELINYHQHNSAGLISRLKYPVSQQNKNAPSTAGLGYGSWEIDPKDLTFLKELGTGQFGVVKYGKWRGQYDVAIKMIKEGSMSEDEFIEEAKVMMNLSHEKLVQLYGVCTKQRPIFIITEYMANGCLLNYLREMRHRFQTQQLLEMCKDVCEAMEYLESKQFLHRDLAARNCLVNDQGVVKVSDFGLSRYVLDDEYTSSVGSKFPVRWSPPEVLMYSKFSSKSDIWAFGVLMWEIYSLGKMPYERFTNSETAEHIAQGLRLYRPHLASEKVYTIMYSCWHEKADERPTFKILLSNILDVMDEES
Consider the following compounds; for each one, report its IC50.

Quote BTK (Homo sapiens (Human)) IC50 for entry Cc1c(CNC(=O)c2nc(C(C)(C)C)no2)ccc(-c2ncnc(Nc3cnn(C)c3)n2)c1F [Compound 14] .
< 1 nM

Quote BTK (Homo sapiens (Human)) IC50 for entry Cc1cc(-c2ncnc(Nc3cnn(C)c3)n2)ccc1CNC(=O)c1cn(C(C)(C)C)nn1 [Compound 109] .
1 to 10 nM

Quote BTK (Homo sapiens (Human)) IC50 for entry Cn1cc(Nc2ncnc(-c3ccc(CNC(=O)c4nc(C(C)(C)C)no4)c(Cl)c3F)n2)cn1 [Compound 29] .
< 1 nM

Quote BTK (Homo sapiens (Human)) IC50 for entry C[C@@H](NC(=O)c1noc(C(C)(C)C)n1)c1ccc(-c2ncnc(Nc3ccn(C)n3)n2)c(F)c1Cl [Compound 101] .
< 1 nM
